For each record, write down the corresponding permeability.
test: Permeability from apical to basolateral side in human Caco2 cells assessed as prodrug remaining in basolateral side for 2 hrs by HPLC method; assay type: ADME, cell-based; settings: caco-2, 2 h
Numbers only, in %.

Batch of 4 compounds: report permeability for each.
1. CCC(CC)C(=O)O[C@H]1[C@@H](F)[C@H](n2cnc3c(N)ncnc32)O[C@@H]1CNS(=O)(=O)NC(=O)c1ccccc1O.CCN(CC)CC
2. CC(C)C(=O)O[C@H]1[C@@H](F)[C@H](n2cnc3c(N)ncnc32)O[C@@H]1CNS(=O)(=O)NC(=O)c1ccccc1O.CCN(CC)CC
3. CC(=O)O[C@H]1[C@@H](F)[C@H](n2cnc3c(N)ncnc32)O[C@@H]1CNS(=O)(=O)NC(=O)c1ccccc1O.CCN(CC)CC
4. CCCC(=O)O[C@H]1[C@@H](F)[C@H](n2cnc3c(N)ncnc32)O[C@@H]1CNS(=O)(=O)NC(=O)c1ccccc1O.CCN(CC)CC

Response line:
1: 90; 2: 73; 3: 81; 4: 63

Prompt line: I am curious: what permeability value has been reported for CCCCCCCC(=O)O[C@H]1[C@@H](F)[C@H](n2cnc3c(N)ncnc32)O[C@@H]1CNS(=O)(=O)NC(=O)c1ccccc1O.CCN(CC)CC ?
Response line: 3
